- Test system: LOX IMVI
- Procedure Details: NCI tumour cell line growth inhibition, 48 h
Active and inactive are the calls of the source. Cut-off read from the data, not from the text of the source: active = GI50 up to about 1.1 µM and inactive = higher.

Molecule	Measurement Target	GI50
c1nc(N2CC2)c2cnn(C3CCCCO3)c2n1 (stereo not drawn)	LOX IMVI	> 100 µM (inactive)
c1cc2c(cc1C(N1CCNCC1)N1CCNCC1)OCO2	LOX IMVI	> 100 µM (inactive)
C#C[C@@]1(O)CCCC2=CC3(CC[C@]21C)SCCS3	LOX IMVI	> 100 µM (inactive)

---

- Tested on: LOX IMVI
- Procedure Details: NCI tumour cell line growth inhibition, 48 h
Activity calls are given as the source filed them. Cut-off read from the data, not from the text of the source: active = GI50 up to about 1.1 µM and inactive = higher.
Labels: active, inactive

Molecule	Answer Label
O=C1CSc2nc3ccccc3n2/C=N\N1	inactive
COc1cc2c(cc1OC)C(=O)N(c1ccc(OCCN3CCCC3)cc1)C2	inactive
Nc1nc2c(N)cc(C(F)(F)F)cc2nc1-c1ccccc1	inactive
COc1ccc2[nH]c3c(cnn4cnnc34)c2c1	inactive
O=C(Cn1c2ccc(Br)cc2c2nc3ccccc3nc21)NC1CCCCC1	inactive
O=c1[nH]nc(Cc2ccccc2)n1/N=C/c1cccs1	inactive
COc1cc2c(oc(=O)c3c4oc([Si](C)(C)C)cc4cc(OC)c23)c2cccc(O)c12	inactive
O=C1Nc2cccc(Cl)c2/C1=C\c1c(Cl)nc2n1CCS2	inactive
COc1cc(C2c3cc4c(cc3OC(N3CCCC3)C2C)OCO4)cc(OC)c1OC (configuration not stated)	active
COC(=O)C1=CCC2c3[nH]c4ccccc4c3CCN2C1 (configuration not stated)	inactive
CC(CCCC1SCC2NC(=O)NC21)C(=O)O (configuration not stated)	inactive
COc1ccc2[nH]cc(CCNC(=O)[C@H](Cc3ccc(O)cc3)NC(=O)[C@@H](NCC(F)(F)F)C(C)C)c2c1	inactive
